Recorded amyloid nucleation score values for a group of sequences are listed next.
- test: amyloid nucleation score (Sup35N fusion, yeast selection) (log enrichment); library NNK1; higher = more nucleation; inactive = no reads after selection;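 also: zero at mode of non-aggregating sequences after 7 days selection at 30°C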
readout.name: amyloid nucleation score

INSERT INTO results (sequence_record, readout_name, quantitative_result) VALUES
  ('NFAYGVNYLSAVKGCFTFAR', 'amyloid nucleation score', -0.206),
  ('ICQRSRAGSGSEVLT', 'amyloid nucleation score', -0.205),
  ('YYNLTSGPFKGGCWQRYF', 'amyloid nucleation score', -0.205);

====

- test: amyloid nucleation score (Sup35N fusion, yeast selection) (log enrichment); library NNK2; higher = more nucleation; inactive = no reads after selection
Recorded amyloid nucleation score values for a group of substances are listed next.
readout.name: amyloid nucleation score

INSERT INTO assay_data (substance, readout_name, quantitative_result) VALUES
  ('VWIFSSSIKTTLYKHLLSNT', 'amyloid nucleation score', -0.539),
  ('VFLYAYYLNI', 'amyloid nucleation score', 0.039),
  ('TSSVPGLRSWVWVKQDSDRW', 'amyloid nucleation score', 1),
  ('RKLRVNWERCFHVSEAGLKV', 'amyloid nucleation score', 0.057),
  ('CVAWKR', 'amyloid nucleation score', 0.554),
  ('NLFKDTISSLHNGIETIAPF', 'amyloid nucleation score', -0.82);

====

- test: amyloid nucleation score (Sup35N fusion, yeast selection) (log enrichment); library NNK2; higher = more nucleation; inactive = no reads after selection
readout.name: amyloid nucleation score

INSERT INTO measurements (substance, result) VALUES
  ('NWIQRQVL', 'inactive'),
  ('EDDVSYNSFSGQASLWKFPK', -0.818),
  ('GEQLLED', 'inactive'),
  ('ENQPVELSTTRDTRAGMSDT', 'inactive'),
  ('FTNFNDYLFWNYMNWTGYML', 'inactive');

====

- test: amyloid nucleation score (Sup35N fusion, yeast selection) (log enrichment); library NNK1; higher = more nucleation; inactive = no reads after selection
# binning rule on amyloid nucleation score: bottom bin = under -0.2, middle bin = from -0.2 up to 1, top bin = 1 and over

INSERT INTO measurements (substance, answer_label) VALUES
  ('FLGPIAIVGRHLMICIMQSH', 'middle bin'),
  ('TYRVVFVAGIHQFNFVPLVR', 'middle bin'),
  ('CGAVHGGGWSAIYLNGYLGW', 'middle bin'),
  ('SSILISFI', 'bottom bin'),
  ('SALILVFFYWA', 'top bin'),
  ('SEMGINQKFLLGVQDTLHRY', 'bottom bin'),
  ('SVENQNIKRYT', 'top bin'),
  ('RNNIFFF', 'top bin'),
  ('AGHLGWARFVYTLLSEDTVH', 'middle bin'),
  ('FNLGSGDWL', 'bottom bin'),
  ('VSKDSSIQRGSRQFCYLAYS', 'top bin'),
  ('WLETRP', 'bottom bin'),
  ('SPFPGKEFNGIVCPLPYSMI', 'bottom bin');

====

Recorded amyloid nucleation score values for a group of sequences are listed next.
- test: amyloid nucleation score (Sup35N fusion, yeast selection) (log enrichment); library NNK3; higher = more nucleation; inactive = no reads after selection
readout.name: amyloid nucleation score

INSERT INTO assay_data (sequence_record, quantitative_result) VALUES
  ('GASVGFEVHCNFVVNLNVQH', 2.18),
  ('HHIMIATLSG', 0.711),
  ('RLGFRRIRIIRSSGFSEEWH', 0.224);
